- EXPERIMENT: Pharmacokinetics study on beagle dogs
- Assay type: in vivo
- EXPERIMENTAL CONTEXT: both, beagle, dog, plasma, po, 1 mg/kg

COMPOUND	bioavailability, %
CO[C@H]1CN(c2ccc(C(C)(C)O)nn2)CC[C@H]1NC(=O)c1[nH]c(C)c(Cl)c1Cl [Compound 28]	66.8

###

- EXPERIMENT: Pharmacokinetics study on beagle dogs
- Assay type: in vivo
- EXPERIMENTAL CONTEXT: both, beagle, dog, plasma, iv, 1 mg/kg
QUANTITY: MRT last (h)

CO[C@H]1CN(c2ccc(C(C)(C)O)nn2)CC[C@H]1NC(=O)c1[nH]c(C)c(Cl)c1Cl 9.79
